Tested on: Escherichia coli TOP10
Assay: shrunken log2 fold change of peptide-encoding DNA abundance (4.5 h post-induction vs induction); higher = less antimicrobial activity (less host growth inhibition)
Settings: time post-induction: 4.5 h; library: site-saturation at positions 5, 18, 19, 20
measured property: shrunken log2 fold change
Reply briefly: the number, and no unit.

Q) Test system Escherichia coli TOP10; read-out shrunken log2 fold change; what value for RRIRIRPPRLPRPRPRPHQRPRP ?;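 further: peptides expressed intracellularly from a pBAD plasmid library in pooled LB shake-flask culture, induced with 0.3% L-arabinose, DNA abundance read by NGS, three biological replicates, DESeq2 with apeglm shrinkage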
A) -0.137

Q) Could you do the same for RRIRKRPPRLPRPRPRPMLNPRP , please?
A) 0.174

Q) Next record, please: RRIRYRPPRLPRPRPRPVDFPRP
A) -0.226

Q) And for RRIRVRPPRLPRPRPRPTRPPRP ?
A) 0.822

Q) Param item: RRIRKRPPRLPRPRPRPAVNPRP
A) -0.0383

Q) Input RRIRFRPPRLPRPRPRPRSAPRP
A) 0.379

Q) Input RRIRIRPPRLPRPRPRPMYRPRP
A) -0.0946

Q) RRIRYRPPRLPRPRPRPGPYPRP , same question.
A) -0.771

Q) // same read-out, input: RRIRPRPPRLPRPRPRPHVYPRP
A) -0.552

Q) And then RRIRRRPPRLPRPRPRPFSTPRP , what is it?
A) -0.0277

Q) Can you check RRIRIRPPRLPRPRPRPMMNPRP next?
A) -0.442

Q) Would you mind doing RRIRIRPPRLPRPRPRPMCLPRP as well?
A) -0.425

Q) Cool, now RRIRTRPPRLPRPRPRPKNGPRP
A) 0.0173

Q) Consider next the sequence RRIRIRPPRLPRPRPRPAEVPRP in the same way.
A) -0.041

Q) Now consider RRIRLRPPRLPRPRPRPWFMPRP .
A) -0.0837
